Every entry's value here was drawn from patent US9828379B2.

compounds and their reported IC50
# subject_of_test: MAGL (Mus musculus, UniProt O35678)
# Sequence (O35678 whole entry): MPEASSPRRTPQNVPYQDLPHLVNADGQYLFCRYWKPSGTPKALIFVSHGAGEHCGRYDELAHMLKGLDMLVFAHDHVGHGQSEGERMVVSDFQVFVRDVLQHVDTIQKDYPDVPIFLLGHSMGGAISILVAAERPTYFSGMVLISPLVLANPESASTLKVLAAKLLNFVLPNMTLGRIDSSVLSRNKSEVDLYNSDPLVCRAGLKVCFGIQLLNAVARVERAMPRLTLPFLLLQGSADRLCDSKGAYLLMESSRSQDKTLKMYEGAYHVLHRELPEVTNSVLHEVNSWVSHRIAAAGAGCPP
# method_summary: biochemical
# measurement_parameters: mouse; in vitro competitive ABPP; read-out: Mouse (IC50 value, nM) MAGL

# annotated cases, reported IC50 shown
Cc1cc(CN2CC3CN(C(=O)OC(C(F)(F)F)C(F)(F)F)CC3C2)n(C(C)C)n1 (stereo not shown)
100 to 1000 nM
CS(=O)(=O)NC1CCN(c2ccc(Cl)cc2CN2CC3CN(C(=O)OC(C(F)(F)F)C(F)(F)F)CC3C2)CC1 (stereo not shown)
100 to 1000 nM
CC(=O)N1CCN(c2cc(Cl)ccc2CN2CC3CN(C(=O)OC(C(F)(F)F)C(F)(F)F)CC3C2)CC1 (stereo not shown)
< 100 nM

Query string: # query: IC50 of entry O=C(OC(C(F)(F)F)C(F)(F)F)N1CC2CN(Cc3cccc(Cl)c3N3CCC(F)CC3)CC2C1 (stereo not shown)
Result string: < 100 nM

Query string: One more compound: Cn1nc(-c2cccc(F)c2)cc1CN1CC2CN(C(=O)OC(C(F)(F)F)C(F)(F)F)CC2C1 (stereo not shown)
Result string: < 100 nM

Query string: One more compound: O=C(OC(C(F)(F)F)C(F)(F)F)N1CC2CN(Cc3cc(CN4CCCC4)ccc3OC(F)(F)F)CC2C1 (stereo not shown)
Result string: 100 to 1000 nM

Query string: One more compound: CCn1cc(CN2CC3CN(C(=O)OC(C(F)(F)F)C(F)(F)F)CC3C2)c(-c2cccc(N3CCCC3)c2)n1 (stereo not shown)
Result string: < 100 nM
